The following compounds are shown together with reported IC50 values.
- Test system: LNCaP cells
- assay.text: LNCaP cell viability assay (CellTiter-Glo)
- Type: cell-based
- recorded.conditions: Homo sapiens; cell viability, LNCaP clone FGC, Prostate carcinoma (Table 4)
# unit: nM | format: bare number

compound | value.reported
CNC(=O)N1CCc2c(c(N3CCCc4cc(-c5cnn(C)c5)c(C(F)F)cc43)nn2C2CCOCC2)C1 [GNE-781, reference compound] | 4170
CNC(=O)N1CCc2c(c(N3CCCc4cc(-c5cnn(C)c5)c(C(F)F)cc43)nn2C2CCN(C(=O)CCCCCCCNc3ccc4c(c3)C(=O)N(C3CCC(=O)NC3=O)C4=O)CC2)C1 (stereo not drawn) | 1.3

Continue with the compound presented below.
Entry CNC(=O)N1CCc2c(c(N3CCCc4cc(-c5cnn(C)c5)c(C(F)F)cc43)nn2C2CCN(C(=O)CCCCCNc3cccc4c3C(=O)N(C3CCC(=O)NC3=O)C4=O)CC2)C1 (stereo not drawn) , system LNCaP cells: what IC50 was measured?
0.6
